The measurements presented in this section are drawn from patent US6221914A.

Target: Human plasma kallikrein (Homo sapiens, UniProt P03952)
Sequence (P03952 391-638 limits assumed): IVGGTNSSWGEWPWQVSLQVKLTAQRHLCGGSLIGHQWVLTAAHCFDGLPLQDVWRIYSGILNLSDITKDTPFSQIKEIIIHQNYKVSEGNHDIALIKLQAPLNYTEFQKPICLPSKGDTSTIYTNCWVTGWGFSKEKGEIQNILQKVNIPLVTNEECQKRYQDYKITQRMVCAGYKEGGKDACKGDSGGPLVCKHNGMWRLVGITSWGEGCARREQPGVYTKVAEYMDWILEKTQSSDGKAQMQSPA
Sequence (P03952 20-390 partner limits assumed): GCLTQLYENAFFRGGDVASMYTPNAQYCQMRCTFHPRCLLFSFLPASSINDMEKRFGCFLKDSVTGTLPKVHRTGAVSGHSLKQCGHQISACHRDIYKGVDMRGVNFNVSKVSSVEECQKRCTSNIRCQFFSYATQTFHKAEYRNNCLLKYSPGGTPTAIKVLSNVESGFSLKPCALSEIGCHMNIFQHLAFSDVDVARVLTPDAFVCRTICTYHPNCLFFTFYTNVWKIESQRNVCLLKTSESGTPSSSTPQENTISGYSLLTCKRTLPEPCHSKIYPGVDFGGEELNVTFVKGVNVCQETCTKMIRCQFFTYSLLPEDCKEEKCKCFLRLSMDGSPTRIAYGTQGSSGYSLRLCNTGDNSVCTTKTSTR
Experiment: Ki determination, human plasma kallikrein (H-D-Prolyl-Phe-Arg-pNA)
Conditions: 50 mM Tris-HCl, pH 7.8, 200 mM NaCl, 0.05% BSA; read-out: Experimentally Determined Ki, Plasma Kallikrein
I'd be grateful if you could share measured pKi for these entries.
Answers are plain numbers, as −log10 of the molar value.

# annotated cases, reported pKi shown
N=C(N)c1cccc(S(=O)(=O)NCc2ccc(OCCCCCCCOc3ccc(CNS(=O)(=O)c4cccc(C(=N)N)c4)cc3)cc2)c1 : 4.47
N=C(N)c1cccc(C(=O)NCc2ccc(OCCCCOc3ccc(CNC(=O)c4cccc(C(=N)N)c4)cc3)cc2)c1 : 5.11
N=C(N)c1ccc2[nH]c(CC(=O)NCc3ccc(OCCCCCOc4ccc(CNC(=O)Cc5nc6cc(C(=N)N)ccc6[nH]5)cc4)cc3)nc2c1 : 5.37
N=C(N)c1ccc(C(=O)NCc2ccc(OCCCOc3ccc(CNC(=O)c4cccc(C(=N)N)c4)cc3)cc2)cc1 : 5.77
N=C(N)c1ccc(C(=O)NCc2ccc(OCCCCOc3ccc(CNC(=O)c4ccc(C(=N)N)cc4)cc3)cc2)cc1 : 5.20

Please state pKi for every compound in the list that follows.
1. N=C(N)c1ccc(C(=O)NCc2ccc(OCCCOc3ccc(CNS(=O)(=O)c4cccc(C(=N)N)c4)cc3)cc2)cc1
2. N=C(N)c1cccc(S(=O)(=O)NCc2ccc(OCCCCOc3ccc(CNS(=O)(=O)c4cccc(C(=N)N)c4)cc3)cc2)c1
3. N=C(N)c1cccc(S(=O)(=O)NCc2ccc(COCc3ccc(CNS(=O)(=O)c4cccc(C(=N)N)c4)cc3)cc2)c1
4. N=C(N)c1ccc(S(=O)(=O)NCc2cccc(OCCCCCOc3cccc(CNS(=O)(=O)c4ccc(C(=N)N)cc4)c3)c2)cc1
5. N=C(N)c1cccc(C(=O)NCc2ccc(OCCCCCCCOc3ccc(CNC(=O)c4cccc(C(=N)N)c4)cc3)cc2)c1
6. N=C(N)c1ccc(C(=O)NCc2cccc(OCCCCCOc3cccc(CNC(=O)c4ccc(C(=N)N)cc4)c3)c2)cc1
7. N=C(N)c1cccc(C(=O)NCc2cccc(OCCCCCOc3cccc(CNC(=O)c4cccc(C(=N)N)c4)c3)c2)c1
8. N=C(N)c1ccc2[nH]c(CC(=O)NCc3ccc(OCCCCOc4ccc(CNC(=O)Cc5nc6cc(C(=N)N)ccc6[nH]5)cc4)cc3)nc2c1

1: 5.85; 2: 5.60; 3: 5.06; 4: 5.05; 5: 4.14; 6: 5.55; 7: 5.54; 8: 5.60

Please state pKi for every compound in the list that follows.
1. N=C(N)c1ccc(C(=O)NCc2ccc(OCCOc3ccc(CNC(=O)c4ccc(C(=N)N)cc4)cc3)cc2)cc1
2. N=C(N)c1ccc(C(=O)NCc2ccc(OCC3(COc4ccc(CNC(=O)c5ccc(C(=N)N)cc5)cc4)CCC3)cc2)cc1
3. N=C(N)c1cccc(S(=O)(=O)NCc2ccc(OCCOc3ccc(CNS(=O)(=O)c4cccc(C(=N)N)c4)cc3)cc2)c1

1: 5.14; 2: 5.41; 3: 4.92

Please state pKi for every compound in the list that follows.
1. N=C(N)c1ccc(C(=O)NCc2ccc(OCCCOc3ccc(CNC(=O)c4ccc(CN)cc4)cc3)cc2)cc1
2. N=C(N)c1cccc(C(=O)NCc2ccc(OCCCCCOc3ccc(CNC(=O)c4cccc(C(=N)N)c4)cc3)cc2)c1
3. N=C(N)c1cccc(C(=O)NCc2ccc(OCCOc3ccc(CNC(=O)c4cccc(C(=N)N)c4)cc3)cc2)c1
4. N=C(N)c1cccc(S(=O)(=O)NCc2ccc(OCCCCCOc3ccc(CNS(=O)(=O)c4cccc(C(=N)N)c4)cc3)cc2)c1
5. N=C(N)c1ccc(C(=O)NCc2ccc(OCCCOc3ccc(CNC(=O)c4ccc(C(=N)N)cc4)cc3)cc2)cc1
6. N=C(N)c1cccc(S(=O)(=O)NCc2cccc(OCCCCCOc3cccc(CNS(=O)(=O)c4cccc(C(=N)N)c4)c3)c2)c1
7. N=C(N)c1ccc(C(=O)NCc2ccc(OCCCCCCCOc3ccc(CNC(=O)c4ccc(C(=N)N)cc4)cc3)cc2)cc1

5.46
4.96
4.62
4.74
5.54
5.54
4.34

###

I'd be grateful if you could share measured Ki for these entries.
Target: Human plasma plasmin (Homo sapiens, UniProt P00747)
Sequence (P00747 581-810 limits assumed): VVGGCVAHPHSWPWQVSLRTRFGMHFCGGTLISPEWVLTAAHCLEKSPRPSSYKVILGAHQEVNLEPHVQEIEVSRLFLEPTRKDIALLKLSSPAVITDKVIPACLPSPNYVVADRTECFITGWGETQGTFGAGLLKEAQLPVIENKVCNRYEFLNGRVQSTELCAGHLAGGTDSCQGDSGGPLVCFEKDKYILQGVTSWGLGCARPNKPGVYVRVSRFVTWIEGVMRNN
Sequence (P00747 97-580 partner limits assumed): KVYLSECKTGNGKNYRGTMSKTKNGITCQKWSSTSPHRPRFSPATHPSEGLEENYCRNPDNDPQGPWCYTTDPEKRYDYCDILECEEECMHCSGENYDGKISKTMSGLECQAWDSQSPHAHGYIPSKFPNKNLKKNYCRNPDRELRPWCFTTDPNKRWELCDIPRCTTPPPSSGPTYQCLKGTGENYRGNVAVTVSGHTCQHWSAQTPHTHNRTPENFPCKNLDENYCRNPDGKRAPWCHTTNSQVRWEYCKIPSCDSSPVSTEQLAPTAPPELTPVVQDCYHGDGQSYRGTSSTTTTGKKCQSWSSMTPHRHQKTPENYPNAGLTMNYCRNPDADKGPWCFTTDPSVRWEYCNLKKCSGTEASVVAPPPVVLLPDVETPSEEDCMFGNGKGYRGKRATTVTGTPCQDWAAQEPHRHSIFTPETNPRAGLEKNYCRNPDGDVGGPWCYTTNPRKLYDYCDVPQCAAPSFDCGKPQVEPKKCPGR
Assay: Ki determination, human plasma plasmin (Tosyl-Gly-Pro-Lys-pNA)
Details: 100 mM Tris-HCl, pH 7.4, 100 mM NaCl, 0.05% Triton X-100; read-out: Experimentally Determined Ki, Plasmin
One number for each entry, in µM.

N=C(N)c1cccc(S(=O)(=O)NCc2ccc(COCc3ccc(CNS(=O)(=O)c4cccc(C(=N)N)c4)cc3)cc2)c1 : 10
CN(Cc1ccc(OCCCOc2ccc(CN(C)S(=O)(=O)c3cccc(C(=N)N)c3)cc2)cc1)S(=O)(=O)c1cccc(C(=N)N)c1 : 10

Please state Ki for every molecule in the list that follows.
1. N=C(N)c1ccc(C(=O)NCc2ccc(OCCCCOc3ccc(CNC(=O)c4ccc(C(=N)N)cc4)cc3)cc2)cc1
2. N=C(N)c1ccc(C(=O)NCc2ccc(OCCCOc3ccc(CNC(=O)c4ccc(C(=N)N)cc4)cc3)cc2)cc1

1: 12; 2: 11.6

###

Target: Human Neutrophil elastase (Homo sapiens, UniProt P08246)
Sequence (P08246 30-267): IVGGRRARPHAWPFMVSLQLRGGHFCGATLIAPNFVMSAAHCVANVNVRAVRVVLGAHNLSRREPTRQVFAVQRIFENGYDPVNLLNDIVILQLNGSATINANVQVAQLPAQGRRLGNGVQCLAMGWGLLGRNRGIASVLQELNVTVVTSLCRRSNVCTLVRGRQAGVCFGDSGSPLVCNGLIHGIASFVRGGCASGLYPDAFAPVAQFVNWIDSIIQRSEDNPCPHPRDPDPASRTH
Assay: Ki determination, human neutrophil elastase (pyroGlu-Pro-Val-pNA)
Conditions: 100 mM Tris-HCl, pH 8.3, 0.96 M NaCl, 1% BSA; read-out: Experimentally Determined Ki, Elastase
pKi: −log10 of the molar value.
ASSAY ENDPOINT: pKi

# annotated cases, reported pKi shown
N=C(N)c1cccc(C(=O)NCc2ccc(OCCOc3ccc(CNC(=O)c4cccc(C(=N)N)c4)cc3)cc2)c1 [Example 65] : < 4.00
N=C(N)c1ccc2cc(C(=O)NCc3ccc(OCCOc4ccc(CNC(=O)c5ccc6cc(C(=N)N)ccc6c5)cc4)cc3)ccc2c1 [Example 100] : < 4.00

The recorded pKi for entry N=C(N)c1cccc(S(=O)(=O)NCc2ccc(OCCOc3ccc(CNS(=O)(=O)c4cccc(C(=N)N)c4)cc3)cc2)c1 [Example 51] equals < 4.00

###

Molecular target: Bovine pancreatic Trypsin (Bos taurus)
Sequence (P00760 24-246): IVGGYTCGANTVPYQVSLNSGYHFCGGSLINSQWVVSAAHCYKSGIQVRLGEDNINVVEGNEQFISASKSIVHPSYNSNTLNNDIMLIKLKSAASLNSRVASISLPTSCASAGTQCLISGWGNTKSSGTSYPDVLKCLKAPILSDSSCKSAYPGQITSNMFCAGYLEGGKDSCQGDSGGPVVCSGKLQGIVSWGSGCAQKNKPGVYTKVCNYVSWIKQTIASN
I'd be grateful if you could share measured Ki for these entries.
One number for each entry, in nM.

N=C(N)c1ccc2sc(C(=O)NCc3ccc(OCCCOc4ccc(CNC(=O)c5cc6cc(C(=N)N)ccc6s5)cc4)cc3)cc2c1 : 13000
N=C(N)c1ccc2[nH]c(CC(=O)NCc3ccc(OCCCCCOc4ccc(CNC(=O)Cc5nc6cc(C(=N)N)ccc6[nH]5)cc4)cc3)nc2c1 : 3600
N=C(N)c1cccc(S(=O)(=O)NCc2ccc(OCCCCOc3ccc(CNS(=O)(=O)c4cccc(C(=N)N)c4)cc3)cc2)c1 : 1800

Please state Ki for every molecule in the list that follows.
1. N=C(N)c1cccc(C(=O)NCc2ccc(OCCCCCOc3ccc(CNC(=O)c4cccc(C(=N)N)c4)cc3)cc2)c1
2. N=C(N)c1ccc(C(=O)NCc2ccc(OCCCCCCOc3ccc(CNC(=O)c4ccc(C(=N)N)cc4)cc3)cc2)cc1
3. N=C(N)c1cccc(S(=O)(=O)NCc2ccc(OCCOc3ccc(CNS(=O)(=O)c4cccc(C(=N)N)c4)cc3)cc2)c1
4. CN(Cc1ccc(OCCCOc2ccc(CN(C)S(=O)(=O)c3cccc(C(=N)N)c3)cc2)cc1)S(=O)(=O)c1cccc(C(=N)N)c1
5. N=C(N)c1ccc(C(=O)NCc2ccc(OCC3(COc4ccc(CNC(=O)c5ccc(C(=N)N)cc5)cc4)CCC3)cc2)cc1
6. N=C(N)c1ccc(C(=O)NCc2ccc(COCc3ccc(CNC(=O)c4ccc(C(=N)N)cc4)cc3)cc2)cc1
7. N=C(N)c1ccc(S(=O)(=O)NCc2cccc(OCCCCCOc3cccc(CNS(=O)(=O)c4ccc(C(=N)N)cc4)c3)c2)cc1

1: 900; 2: 1300; 3: 5200; 4: 3200; 5: 1500; 6: 510; 7: 1400

Query N=C(N)c1cccc(S(=O)(=O)NCc2ccc(OCCCCCOc3ccc(CNS(=O)(=O)c4cccc(C(=N)N)c4)cc3)cc2)c1 on Bovine pancreatic Trypsin (Bos taurus); Ki returned: 2500

###

Target: Human plasma factor Xa (Homo sapiens)
Sequence (P00742 235-488 limits assumed): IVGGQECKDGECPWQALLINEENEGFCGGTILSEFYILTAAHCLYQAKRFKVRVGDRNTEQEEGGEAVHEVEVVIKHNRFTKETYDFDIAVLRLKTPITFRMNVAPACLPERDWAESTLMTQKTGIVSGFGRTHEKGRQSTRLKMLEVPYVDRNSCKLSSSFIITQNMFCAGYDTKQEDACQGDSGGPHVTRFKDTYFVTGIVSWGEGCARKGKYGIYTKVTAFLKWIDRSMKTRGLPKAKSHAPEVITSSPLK
Sequence (P00742 41-179 partner limits assumed): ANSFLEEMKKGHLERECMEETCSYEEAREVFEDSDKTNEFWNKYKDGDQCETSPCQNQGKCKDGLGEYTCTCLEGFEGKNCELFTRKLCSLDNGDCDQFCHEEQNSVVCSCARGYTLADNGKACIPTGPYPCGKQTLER
Assay: Ki determination, human plasma factor Xa (N-Benzoyl-Ile-Glu-Gly-Arg-pNA)
Conditions: 50 mM Tris-HCl, pH 7.8, 200 mM NaCl, 0.05% BSA; read-out: Experimentally Determined Ki, Factor Xa
Binarize Ki at 20 µM; below is T, at or above is F.

A selection of reference data follows.
N=C(N)c1ccc2sc(C(=O)NCc3ccc(OCCCOc4ccc(CNC(=O)c5cc6cc(C(=N)N)ccc6s5)cc4)cc3)cc2c1 : F
N=C(N)c1ccc(C(=O)NCc2ccc(OCC3(COc4ccc(CNC(=O)c5ccc(C(=N)N)cc5)cc4)CCC3)cc2)cc1 : T
N=C(N)c1cccc(S(=O)(=O)NCc2ccc(OCCOc3ccc(CNS(=O)(=O)c4cccc(C(=N)N)c4)cc3)cc2)c1 : T
N=C(N)c1ccc(C(=O)NCc2ccc(OCCCOc3ccc(CNC(=O)c4ccc(C(=N)N)cc4)cc3)cc2)cc1 : F
N=C(N)c1ccc2cc(C(=O)NCc3ccc(OCCOc4ccc(CNC(=O)c5ccc6cc(C(=N)N)ccc6c5)cc4)cc3)ccc2c1 : F
N=C(N)c1cccc(S(=O)(=O)NCc2ccc(COCc3ccc(CNS(=O)(=O)c4cccc(C(=N)N)c4)cc3)cc2)c1 : T
N=C(N)c1ccc(C(=O)NCc2ccc(OCCOc3ccc(CNC(=O)c4ccc(C(=N)N)cc4)cc3)cc2)cc1 : F
N=C(N)c1cccc(C(=O)NCc2ccc(OCCCCOc3ccc(CNC(=O)c4cccc(C(=N)N)c4)cc3)cc2)c1 : T
N=C(N)c1cccc(S(=O)(=O)NCc2ccc(OCCCCCCCOc3ccc(CNS(=O)(=O)c4cccc(C(=N)N)c4)cc3)cc2)c1 : T
N=C(N)c1cccc(C(=O)NCc2ccc(OCCCCCOc3ccc(CNC(=O)c4cccc(C(=N)N)c4)cc3)cc2)c1 : T

Please look at the following molecule next.
For N=C(N)c1cccc(S(=O)(=O)NCc2ccc(OCCCCCCOc3ccc(CNS(=O)(=O)c4cccc(C(=N)N)c4)cc3)cc2)c1 , is the recorded Ki below the cut-off of 20 µM?
T
